For each entry below, report its activation value.
system: D(2) dopamine receptor (Homo sapiens)
experiment notes: HTS Assay for Allosteric Agonists of the Human D2 Dopamine Receptor: Primary Screen for Agonists; further: 0% is about no effect
run parameters: HEK293 T-REx D2 cells, calcium flux agonist mode; at 2 µM; hits give high values
Method: NIH Chemical Genomics Center [NCGC] NIH Molecular Libraries Probe Centers Network [MLPCN] […] Freshly passaged cells are plated in 1536 well black, clear bottom plates at a density of 4000 cells/well in 3 ul of complete media containing 1x tetracycline inducer. […] Agonist read: A 10 cycle (1 second/cycle) baseline measurement is taken and then the FDSS online 1536 pintool delivers 23 nl of compound library (as well as dopamine controls) to the plate. […]
Hit rate of the full screen: of about 340,000 compounds, about 1,800 (0.53%) were called active. The list comes from a sample in which actives are over-represented; it also holds close analogues and randomly drawn compounds.
Your answer is read as %, so omit the unit and give the number.

Consider the molecule `CCCCCc1c(C)nc(N2CCN(Cc3ccc4c(c3)OCO4)CC2)[nH]c1=O` and give its measured activation.
0.0879

Subsequent entry: `COc1ccccc1CN1CCC(CNC(=O)c2cnn(-c3ccccc3Cl)c2C2CCN(C(=O)OC(C)(C)C)CC2)CC1`
3.36

What about this molecule? COc1cc(NS(=O)(=O)c2ccc3c(c2)OCC(C(=O)N2CCCC2)O3)cc(OC)c1 (centres undefined)
0.531

Here is the next molecule: CC(C)CCN1CCN(Cc2ccc(C(F)(F)F)cc2)CC1CCO (centres undefined)
-0.55

Subsequent entry: COc1ccc(OC)c2sc(N3CCN(C(=O)C4COc5ccccc5O4)CC3)nc12 (centres undefined)
-0.0345

Also `Cc1cc(C)cc(NC(=O)CSc2oc(-c3ccccc3)nc2S(=O)(=O)c2ccc(Cl)cc2)c1` ?
-0.364

# repeat for `COc1cc(NC(=O)c2nc3ccccc3nc2C)cc(OC)c1OC`
0.0893

// repeat for CCOC(=O)CC1C(=O)NCCN1c1nc2c(C)cccn2c(=O)c1/C=C1\SC(=S)N(C(C)CC)C1=O (centres undefined) and report
61.9

And then Cc1ccc(NC(=O)C2CCCN(S(=O)(=O)c3c(C)noc3C)C2)c(C)c1 (centres undefined) , what is it?
-0.264

Queued: `CCc1ccc(CN(Cc2ccco2)C(=O)COc2ccc(Cl)c(C)c2)cc1`
3.85

Request: CCOc1cccc(CC(=O)N2CCc3c([nH]c4ccccc34)C2c2ccc(F)cc2)c1OCC (centres undefined)
-0.484

Then O=C(/C=C/c1cn(CC(O)CN2CCc3ccccc32)c2ccccc12)c1ccc(Br)cc1 (centres undefined) ?
2.61

For `CCOc1cc(-c2nnc(SCC(=O)NC3CCCC3)nc2-c2ccc(OC)c(OCC)c2)ccc1OC` then?
0.392

Try the molecule `CCCN(CCC)c1nc2c(C)cccn2c(=O)c1/C=C1/SC(=S)N(Cc2ccco2)C1=O`
9.37

Quick one: CCN(CC)CCC(c1ccc2c(c1)OCO2)c1c(OC)cc(OC)c2c(-c3ccccc3)cc(=O)oc12 (centres undefined)
-1.38

Next: `COc1cc(NC(=O)c2nn(-c3ccc(C)cc3)c(=O)c3c2c2ccccc2n3C)cc(OC)c1OC`
-0.5

Please do the same for `O=C(CSc1nc2c(c(=O)[nH]1)CN(Cc1ccc3c(c1)OCO3)CC2)Nc1cc(F)ccc1F` as well.
0.843

Now the molecule `Cc1ccccc1Nc1nc(N)nc(CN2CCN(c3ccccn3)CC2)n1`
38.5

Subsequent entry: COc1cc(C(CCN2CCN(c3ccccc3)CC2)c2c(OC)cc(OC)c3ccc(=O)oc23)cc(OC)c1OC (centres undefined)
25.6

====

system: D(2) dopamine receptor (Homo sapiens)
experiment notes: HTS Assay for Allosteric Agonists of the Human D2 Dopamine Receptor: Primary Screen for Agonists; further: 0% is about no effect
run parameters: HEK293 T-REx D2 cells, calcium flux agonist mode; at 2 µM; hits give high values
Hit rate of the full screen: of about 340,000 compounds, about 1,800 (0.53%) were called active. For the sample, actives were picked, then their nearest neighbours and some compounds at random.
observed property: activation (%)
Provide the reading as a plain figure in %.

Entry under review: COc1ccc(CNC(=O)CS(=O)Cc2nc(-c3cccc(C)c3)oc2C)cc1 (stereo not drawn) . Reported activation?
-0.737

Queued: `COc1ccc(OC)c(C(=O)c2coc3ccc(O)c(CN4CCOCC4)c23)c1`
0.863

Repeat for the following compound: CCOc1cc2[nH]c(=S)n(CCN3CCCCC3C)c(=O)c2cc1OCC (stereo not drawn)
30.2

Please answer likewise for `CCNS(=O)(=O)c1ccc(NC(=O)CSc2nc(-c3ccco3)cc(C(F)(F)F)n2)cc1`
-0.45

And for `O=C(c1c(Cl)cccc1Cl)N1CCN(c2cccc3[nH]ccc23)CC1` ?
41.5

What do we get for `COc1ccccc1-c1ccnc2[nH]n(-c3ccccc3)c(=O)c12` ?
-0.0633

And the next one, `C=Cc1ccc(Cn2c(C(=O)OC)cc3sc(C)cc32)cc1` ?
0.446

One more compound: `Cc1cccc(NC(=O)CN(c2ccc(C(C)C)cc2)S(=O)(=O)c2c(C)nn(C)c2C)c1C`
0.387

Same question for `CS/C(=C\C(=O)c1ccco1)Nc1ccccc1Cl` please.
34.5

Input Cc1ccc(C)c(CN2C(=O)c3ccccc3S(=O)c3ccc(C(=O)N4CCOCC4)cc32)c1 (stereo not drawn)
0.908

Would you mind doing `C=CCSc1nc2c(c(=O)[nH]c(=O)n2C)n1Cc1ccccc1` as well?
-0.578

Another compound: `CCc1nnc(SCc2c(F)cccc2Cl)c2cc3sccc3n12`
0.47

Follow-up item: `CNC(=S)N1CCN(c2ccccn2)CC1`
2.09

What do you have for `CCCCCCc1cc2cc(-c3nnc(-c4ccccc4)o3)c(=O)oc2cc1O` ?
32.4

Also need `CCN(CCCNC(=O)c1ccc2c(c1)NC(=O)CN2C)c1cccc(C)c1` , thanks.
37.3

Further, for O=S(=O)(c1ccc(OCC(O)CN2CCN(c3ccccc3Cl)CC2)cc1)N1CCOCC1 (stereo not drawn) ?
-0.884

Same again, this time with Cc1cccc(CC(=O)N2CC(=O)Nc3ccc(F)cc3C2c2ccccc2)c1 (stereo not drawn)
-0.521

Another compound: `Cc1ccc(CN2C(=O)N/C(=C/c3cc(C)n(-c4ccccn4)c3C)C2=O)cc1`
-1.58

How about this compound: CC(C)c1ccc(OCC(O)Cn2cnc3ccccc32)cc1 (stereo not drawn)
1.03

`CCOc1ccc(N(CC)C(=O)c2noc3c2COc2ccc(C)cc2-3)cc1` , same question.
0.123

Try the compound C=CCc1ccccc1OCC(O)CN1CCN(CCO)CC1 (stereo not drawn)
-1.83

Now give it for `Cc1cc(C)cc(NC(=O)Cn2c(=O)c3ccccc3n3nncc23)c1` too.
0.456

Try `Cc1nc2c(c(=O)n1Cc1ccco1)c1nc3ccccc3nc1n2Cc1ccccc1` next.
-0.619

Let us now turn to CCCCN1C(=O)c2[nH]nc(-c3ccccc3O)c2C1c1cccc(OCc2ccccc2)c1 (stereo not drawn)
-0.42

Next record, please: `CCc1cc2c(cc3c(=O)n(CC(=O)NCCc4ccc(OC)c(OC)c4)ncn32)s1`
-0.234

Continue with `CN(C)c1ccc(/C=C2\NC(=S)N(Cc3ccccc3)C2=O)cc1`
45.9

Please answer likewise for `Cc1cccc(S(=O)(=O)c2cn(Cc3ccccc3)c3cc(N4CCOCC4)c(F)cc3c2=O)c1`
-0.108

Param item: CC(=O)Nc1ccc(OCC(O)CN2CCN(c3ccccc3Cl)CC2)cc1 (stereo not drawn)
71.6

Try `O=C(NCc1ccccc1)C1CCN(S(=O)(=O)c2ccc3[nH]c(=O)ccc3c2)CC1` next.
-1.06

Further, for `COc1ccccc1-c1noc(-c2ccc(NCc3ccccc3)c([N+](=O)[O-])c2)n1` ?
-0.924

Then `O=C(Nc1ccccc1C(=O)N1CCCCC1)c1ccco1` ?
-0.0145

Next record, please: CCOC(=O)C1CCCN(C(=O)c2ccc3c(c2)sc2nc(-c4ccc(CC)cc4)cn23)C1 (stereo not drawn)
4.91

# iterate: `COc1cc(OC)cc(C(=O)N[C@H](C(=O)Nc2nc3ccccc3[nH]2)C(C)C)c1`
0.237

Entry to check: `CCN(CCCNC(=O)c1ccc(Sc2ccc(C)cc2)c(NC(C)=O)c1)c1cccc(C)c1`
0.373

What do you have for Cc1ccccc1OCC(O)CN1CCN(c2ccccn2)CC1 (stereo not drawn) ?
64.7

Same for `O=C(c1c(F)cccc1Cl)N1CCN(c2ccccn2)CC1`
-0.0487

What about this compound? CC(C)c1ccc(OCC(O)CN2CCN(c3ccccn3)CC2)cc1 (stereo not drawn)
66.2

Then this compound: `O=C(C(Cl)Cl)N1CCN(c2ccccn2)CC1`
4.39

What about this compound? CC1CCN(CC(O)COc2ccc(C(=O)c3ccccc3)cc2)CC1 (stereo not drawn)
-0.0837

Next: `CC(=C1C(=O)c2ccccc2C1=O)N1CCN(c2ccccn2)CC1`
62.2

Now this one: `COC(=O)c1ccc(-c2nc3cc(NC(C)=O)ccc3o2)cc1`
-2.97

Item: COc1cc(OC)cc(C(=O)N[C@H](C(=O)OCC(=O)NC(C)c2ccccc2)C(C)C)c1 (stereo partly drawn)
32.6

Now this one: `CCOc1cc2[nH]c(=S)n(CCCN3CCCC3=O)c(=O)c2cc1OCC`
-1.56
